- assay-procedure: gradient 5% acetonitrile 3 min, to 50% in 2 min, to 85% in 15 min, held 3 min, 100 µL/min
- experimental-setup: column: Zorbax Extend-C18 2.1 x 50 mm; eluents: water / acetonitrile, 0.1% formic acid
measure: RP-LC retention time (s)
Reply numerically in s, unit not repeated.

Reference set (2 entries):
1. Cc1oc(-c2[nH]ncc2C(=O)N2CCCC2)cc1S(=O)(=O)Nc1ccc(F)cc1F	698
2. COC(=O)c1cc2c(=O)n(-c3cccc(C(F)(F)F)c3)ccc2nc1C	917

Please supply the value of reported RP-LC retention time for the item Cc1oc(C2CCN(C(=O)c3ccc(F)c(Cl)c3)CC2)nc1C(=O)N1CCCCC1
868

Please supply the value of reported RP-LC retention time for the item CCC(=O)Nc1cccn2nc(C3CCC3)nc12
735

Please supply the value of reported RP-LC retention time for the item CCc1ccc(NC(=O)NCCn2c(-c3ccncc3)nc3cccnc32)cc1
623

Please supply the value of reported RP-LC retention time for the item CC1CCc2[nH]nc(C(N)=O)c2C1 (centres undefined)
614

Please supply the value of reported RP-LC retention time for the item Cn1cc(-c2cc3n(n2)CCC(=O)N3CCCC(=O)NCCCN2CCCC2)c2ccccc21
621

Please supply the value of reported RP-LC retention time for the item Cc1nc(CC(=O)Nc2ccc(F)cc2Cl)cs1
845

Please supply the value of reported RP-LC retention time for the item Cc1ccc2c(c1)C1CC(C)(O2)N(c2cccc(C(=O)NCc3ccco3)c2)C(=O)N1 (centres undefined)
801

---

- assay-procedure: gradient 5% acetonitrile 3 min, to 50% in 2 min, to 85% in 15 min, held 3 min, 100 µL/min
- experimental-setup: column: Zorbax Extend-C18 2.1 x 50 mm; eluents: water / acetonitrile, 0.1% formic acid
measure: RP-LC retention time (s)
Reply numerically in s, unit not repeated.

Reference set (3 entries):
1) COc1ccc2c(c1)C1(CCN(C(=O)NC3CCCCC3)C1)C(=O)N2C (stereo unspecified)	778
2) Cc1noc(-c2ccnc(-n3ncc(C(=O)N4CCOCC4)c3C)c2)n1	693
3) Cc1ccc2c(Nc3ccccc3Cl)c(-c3nc(C)no3)cnc2n1	821

The record that follows has no RP-LC retention time shown yet.
Please supply the value of reported RP-LC retention time for the item CCOc1cccc(-c2noc(Cn3c(=O)n(-c4ccc(F)cc4)c(=O)c4sccc43)n2)c1
1050

---

RP-LC retention time values, listed per item
- assay-procedure: gradient 5% acetonitrile 3 min, to 50% in 2 min, to 85% in 15 min, held 3 min, 100 µL/min
- experimental-setup: column: Zorbax Extend-C18 2.1 x 50 mm; eluents: water / acetonitrile, 0.1% formic acid
Reply numerically in s, unit not repeated.

1. CCOc1ccc(N(Cc2nc3nc(C)cc(C)n3n2)C(=O)c2ccco2)cc1	754

Please supply the value of reported RP-LC retention time for the item CCCCC(=O)Nc1nc(-c2ccc3c(c2)NC(=O)CO3)c(C)s1
839

---

- assay-procedure: gradient 5% acetonitrile 3 min, to 50% in 2 min, to 85% in 15 min, held 3 min, 100 µL/min
- experimental-setup: column: Zorbax Extend-C18 2.1 x 50 mm; eluents: water / acetonitrile, 0.1% formic acid
RP-LC retention time values, listed per item
Kindly write the number and append the unit.

Reference set (3 entries):
1. CN(C)C(=O)Cn1cnc2ccccc2c1=O	583 s
2. Cc1cccc(S(=O)(=O)N2CCC(c3cc(=O)n4nccc4n3C)CC2)c1	718 s
3. O=C(c1ccc2c(c1)OCO2)N1CC(c2noc(C3CCCN3CC3CC3)n2)C1 (stereo unspecified)	610 s

Please supply the value of reported RP-LC retention time for the item CCn1ccc(C(=O)N2CC(Oc3ccc(-c4nc(-c5ccccc5)no4)cc3)C2)n1
1130 s

Please supply the value of reported RP-LC retention time for the item CC(C)C(=O)Nc1ccc2nc(N3CCN(c4ccccc4F)CC3)cc(C(=O)O)c2c1
664 s

Please supply the value of reported RP-LC retention time for the item CCc1ccc(C(C)NC(=O)C2CCN(c3nnc(-c4ccc(OC)cc4)o3)CC2)cc1 (stereo unspecified)
943 s

Please supply the value of reported RP-LC retention time for the item COc1ccc(-c2nc3cnccn3c2NCCC(=O)Nc2ccc3c(c2)OCO3)cc1
673 s

Please supply the value of reported RP-LC retention time for the item Cc1cccc2c(=O)n(C3CCN(C(=O)Nc4ccc(F)cc4)CC3)cnc12
765 s

Please supply the value of reported RP-LC retention time for the item O=c1ccc(-c2nc(-c3ccncc3)no2)nn1Cc1ccc(F)cc1Cl
904 s

Please supply the value of reported RP-LC retention time for the item Cc1ccccc1-c1noc(C2CCCN2C(=O)Nc2cccc(Cl)c2)n1 (stereo unspecified)
1080 s

Please supply the value of reported RP-LC retention time for the item O=C(Cc1cc(-c2ccco2)on1)Nc1ccc(F)c(F)c1F
838 s

---

- assay-procedure: gradient 5% acetonitrile 3 min, to 50% in 2 min, to 85% in 15 min, held 3 min, 100 µL/min
- experimental-setup: column: Zorbax Extend-C18 2.1 x 50 mm; eluents: water / acetonitrile, 0.1% formic acid
measure: RP-LC retention time (s)
Reply numerically in s, unit not repeated.

Reference set (4 entries):
1) CCn1c(=O)c(N2CCCC(C(=O)N3CCN(c4ccc(F)cc4)CC3)C2)nc2ccccc21 (stereo not given)	1090
2) CNC(=O)c1c(C)nn(-c2ccccc2)c1-n1cccc1	761
3) Cn1c(=O)n(C)c2cc(CNCC(O)c3ccccc3)ccc21 (stereo not given)	569
4) COc1cccc(CNC(=O)Nc2cc3c(cc2N2CCCC2)n(C)c(=O)n3C)c1	600

The record that follows has no RP-LC retention time shown yet.
Please supply the value of reported RP-LC retention time for the item Cc1ccc(CNC(=O)N2CC(c3nc(C)no3)C3(CCOCC3)C2)cc1 (stereo not given)
731

---

- assay-procedure: gradient 5% acetonitrile 3 min, to 50% in 2 min, to 85% in 15 min, held 3 min, 100 µL/min
- experimental-setup: column: Zorbax Extend-C18 2.1 x 50 mm; eluents: water / acetonitrile, 0.1% formic acid
Returns condition met if the recorded RP-LC retention time is greater than or equal to 900 s, and condition not met otherwise.

Use these answered entries as a reference point.
1. CCN1CCn2c(nc3cc(C(=O)NCc4ccccc4C(F)(F)F)ccc32)C1=O	condition not met
2. COc1ccc(NC(=O)N2[C@H]3CC[C@@H]2c2cnc(-c4ccc(F)cc4)nc2C3)c(OC)c1	condition met
3. CCOC(=O)C1=C(CN2CCN(c3ccccn3)CC2)NC(=O)NC1c1ccc(F)cc1 (centres undefined)	condition not met

Determine whether measured RP-LC retention time meets or exceeds 900 s for O=C(NCc1cccc(C(F)(F)F)c1)c1ccc2c(c1)ncn2CCN1CCCC1
condition not met

---

- assay-procedure: gradient 5% acetonitrile 3 min, to 50% in 2 min, to 85% in 15 min, held 3 min, 100 µL/min
- experimental-setup: column: Zorbax Extend-C18 2.1 x 50 mm; eluents: water / acetonitrile, 0.1% formic acid
Exam item: assign YES to entries whose RP-LC retention time is below 800 s and NO to entries at or above 800 s. Note that a value of exactly 800 s receives NO.

Use these answered entries as a reference point.
1. CCOC(=O)c1cc(C2CC2)nc2c1c(=O)n(CC(=O)NC1CCCC1)c(=O)n2C	NO
2. CC(C)S(=O)(=O)c1ccc(CC(=O)Nc2cc(-c3cccs3)nn2CCO)cc1	YES
3. O=C(NCc1ccc(F)cc1)c1nnc(-c2ccc(S(=O)(=O)N3CCCCC3)cc2)o1	NO

Given the entry COc1ccc(NC(=O)N2CCOc3ccc(C)cc32)cc1OC , would its reported RP-LC retention time be below 800 s?
NO

---

- assay-procedure: gradient 5% acetonitrile 3 min, to 50% in 2 min, to 85% in 15 min, held 3 min, 100 µL/min
- experimental-setup: column: Zorbax Extend-C18 2.1 x 50 mm; eluents: water / acetonitrile, 0.1% formic acid
measure: RP-LC retention time (s)
Reply numerically in s, unit not repeated.

Reference set (2 entries):
1. COc1ccc(C)cc1NC1=NS(=O)(=O)c2ccccc21	852
2. O=C(NCc1cc(F)cc(F)c1)C1CCN(c2nnc(-c3ccccc3)o2)CC1	844

The record that follows has no RP-LC retention time shown yet.
Please supply the value of reported RP-LC retention time for the item CC(C)n1c(=O)c2ccccc2n(Cc2nc(-c3cccc(Cl)c3)no2)c1=O
1190

---

- assay-procedure: gradient 5% acetonitrile 3 min, to 50% in 2 min, to 85% in 15 min, held 3 min, 100 µL/min
- experimental-setup: column: Zorbax Extend-C18 2.1 x 50 mm; eluents: water / acetonitrile, 0.1% formic acid
Returns T if the recorded RP-LC retention time is greater than or equal to 800 s, and F otherwise.

1. Cc1ccccc1-n1ccn(Cc2nc(-c3cccc(F)c3)no2)c(=O)c1=O	T
2. CCc1cc(C(=O)NC2CC2)nc2cc(-c3ccsc3)nn12	T
3. O=C(NC1CCN(c2ccccc2)C1=O)c1ccccc1C(F)(F)F (configuration not stated)	T
4. COc1ccc(OC)c(NC(=O)NCCc2nc3cccnc3n2C2CCCC2)c1	F
5. Cc1ccc2c(Nc3cccc(C#N)c3)c(C(=O)N3CCCC3)cnc2n1	F

Determine whether measured RP-LC retention time meets or exceeds 800 s for Cc1cc(C(=O)N2CCC(c3noc(-c4cnccn4)n3)C2)nn1C (configuration not stated)
F

Determine whether measured RP-LC retention time meets or exceeds 800 s for CCn1ccc(-c2nc(-c3ccc4c(c3)nnn4CCN3CCCCC3)no2)n1
F
